test system: HEK-293T; assay: Multiplex assay against HEK293T; type: toxicity, cell-based; conditions: human, 24 h, 1 µM, compound concentration 1 uM, replicate 1
Hi there, I'd appreciate the recorded Population Mitochondria Different-Phenotype (%) for every entry that follows.
One number for each entry, in %.

For orientation, consider the following solved cases.
OC1(c2ccc(Cl)cc2)CCN(Cc2c[nH]c3ccccc23)CC1 :: 70
Cc1nc(-c2cn3c(n2)-c2ccc(-c4cnn(C(C)(C)C(N)=O)c4)cc2OCC3)n(C(C)C)n1 :: 15
CN1CCCC(n2nc(Cc3ccc(Cl)cc3)c3ccccc3c2=O)CC1.Cl (stereo not drawn) [AZELASTINE HYDROCHLORIDE] :: 92

Working through the 5 molecules below one at a time, give Population Mitochondria Different-Phenotype (%) for each.
1. C=CC(=O)Nc1cccc(C(=O)Nc2ccc(Nc3cc(-c4[nH]c(SC)nc4C)ccn3)cc2)c1
2. C=CC(=O)Nc1ccc2ncnc(Nc3ccc(OCc4cccc(F)c4)c(Cl)c3)c2c1.Cc1ccc(S(=O)(=O)O)cc1
3. C[C@@H](NCCCc1cccc(C(F)(F)F)c1)c1cccc2ccccc12.Cl [CINACALCET HYDROCHLORIDE]
4. CNc1nc(NCc2ccc(NS(C)(=O)=O)cc2Cl)cc(-c2ccccn2)n1
5. NC(=O)Nc1cc(-c2cccc(F)c2)sc1C(=O)N[C@H]1CCCNC1

**Result**
1. 58
2. 61
3. 77
4. 50
5. 7

###

Please go through the items and note down their Population Mitochondria Different-Phenotype (%).
system: Fibroblast; assay: Multiplex assay against human fibroblast; assay type: toxicity, cell-based; conditions: 12 h, 1 µM, compound concentration 1 uM, replicate 2
Answers are plain numbers, in %.

Example results:
Cc1cc(C)cc(-c2cnc3cc(Cl)c(-c4cccc(O)c4)cc3c2OCCCN)c1 :: 82
CN1CCC[C@@H]1CCO[C@](C)(c1ccccc1)c1ccc(Cl)cc1.O=C(O)/C=C/C(=O)O [CLEMASTINE FUMARATE] :: 6
CC[C@H](C)C(=O)O[C@H]1C[C@@H](C)C=C2C=C[C@H](C)[C@H](CC[C@@H]3C[C@@H](O)CC(=O)O3)[C@H]21 :: 6

Proceed to the following item.
**Query** Quick one: give measured Population Mitochondria Different-Phenotype (%) for `Cc1nc(-c2cn3c(n2)-c2ccc(-c4cnn(C(C)(C)C(N)=O)c4)cc2OCC3)n(C(C)C)n1`
**Result** 10

###

Please provide measured Population Tubulin-Different-Phenotype (%) for the entries that follow.
test system: HEK-293T; assay: Multiplex assay against HEK293T; type: toxicity, cell-based; conditions: human, 48 h, 10 µM, compound concentration 10 uM, replicate 1;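 on Population Tubulin-Different-Phenotype (%): share of the cells with healthy nuclei that show this phenotype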
Numbers only, in %.

Cc1csc2c(N[C@@H](C)CN3CCN(S(=O)(=O)c4ccc(Cl)c(Cl)c4)CC3)ncnc12 :: 87
CN(C)C(=O)/C(C#N)=C/c1ccc(-c2nc3cnc4[nH]ccc4c3n2C2CCCCC2)o1 :: 40
CN1CCC[C@@H]1CCO[C@](C)(c1ccccc1)c1ccc(Cl)cc1.O=C(O)/C=C/C(=O)O [CLEMASTINE FUMARATE] :: 66
Cl.N#Cc1ccc2[nH]cc(CCCCN3CCN(c4ccc5oc(C(N)=O)cc5c4)CC3)c2c1 [VILAZODONE HYDROCHLORIDE] :: 0
CN(C)CC#Cc1ccc(OCCCc2sc(N3CCc4cccc(C(=O)Nc5nc6ccccc6s5)c4C3)nc2C(=O)O)c(F)c1 [A-1155463] :: 52

Parameters: items (list). Returns: Population Tubulin-Different-Phenotype (%) for each item.
1. CN1CCN(CCOc2cc(OC3CCOCC3)c3c(Nc4c(Cl)ccc5c4OCO5)ncnc3c2)CC1 [SARACATINIB]
2. Cc1nc(-c2ccc(-c3ccc(C(=O)N4CCc5cc6c(cc54)C4(CCN(C)CC4)CO6)cc3)c(C)c2)no1 [SB-224289]
3. C[C@@H](NCCCc1cccc(C(F)(F)F)c1)c1cccc2ccccc12.Cl [CINACALCET HYDROCHLORIDE]
4. C=CC(=O)Nc1ccc2ncnc(Nc3ccc(OCc4cccc(F)c4)c(Cl)c3)c2c1.Cc1ccc(S(=O)(=O)O)cc1
5. Cc1cc(C)cc(-c2cnc3cc(Cl)c(-c4cccc(O)c4)cc3c2OCCCN)c1
6. CC(C)NCC(O)COc1ccc(CCOCC2CC2)cc1.Cl (stereo not given) [BETAXOLOL HYDROCHLORIDE]
7. CN(C)C(=O)N[C@H]1CC[C@H](CCN2CCN(c3cccc(Cl)c3Cl)CC2)CC1.Cl [CARIPRAZINE HYDROCHLORIDE]
8. CN1CCCC(n2nc(Cc3ccc(Cl)cc3)c3ccccc3c2=O)CC1.Cl (stereo not given) [AZELASTINE HYDROCHLORIDE]

**Result**
1. 78
2. 82
3. 86
4. 38
5. 50
6. 61
7. 94
8. 38

For each of the molecules below, note its Population Tubulin-Different-Phenotype (%).
1. CC[C@H](C)C(=O)O[C@H]1C[C@@H](C)C=C2C=C[C@H](C)[C@H](CC[C@@H]3C[C@@H](O)CC(=O)O3)[C@H]21 [LOVASTATIN]
2. CNCc1ccccc1-c1csc([C@H](C)Nc2nc(C)nc3cc(OC)c(OC)cc23)c1 [BAY-294]

**Result**
39
100
